# System tested: soluble IL-6R in cynomolgous plasma (cynomolgus monkey, UniProt A0A2K5WN54)
# Assay summary: ELISA 2, periplasmic extract; competitor IL-6; cyno plasma
For each of the binders below, state its OD450 ratio sample/blank.

Could you share which OD450 ratio sample/blank value was measured for IL6RPMP107G10 (VHH) VHH: EVQLVESGGGLVQAGGSLRLSCAASGSIENINAMGWYRQAPGKQRDFLAIITDGSKTLYADSVKGRFTISNDNAKNTVYLQMNSLKPEDTAVYYCNAYQAGWGDYWGQGTQVTVSS ?
0.883

Could you share which OD450 ratio sample/blank value was measured for IL6RPMP107C3 (VHH) VHH: EVQLVESGGGLVQAGGSLNLSCNASGDIGSINAMGWHRQAPGQQREWVAVITDTDSTIYPDSVKGRFAISRDGAKNTVHLRMSSLKPEDTAVYYCNAYQAGWGDYWGQGTQVTVSS ?
0.904

Could you share which OD450 ratio sample/blank value was measured for IL6RPMP101H6 (VHH) VHH: EMQLVESGGGLVQAGGSLRLSCTASGRTFTDYDMGWFRQAPGKEREVVAIIDTNGDNTLTVGSVKGRFAISSDNAKNTVYLQMNSLLPEDTAVYTCAAGAWSALRRSVANYWGQGTQVTVSS ?
0.713

Could you share which OD450 ratio sample/blank value was measured for IL6RPMP108C9 (VHH) VHH: EVQLVESGGGLVQAGGSLRLSCAASGRTYAMAWFRQAPGKEREFVAAISIVTDYADSVKGRFNISRDNRENTVYLQMNSLKPEDTAVYYCAANTYYSGAYFPRGHEWYEYWGQGTQVTVSS ?
0.907

Could you share which OD450 ratio sample/blank value was measured for IL6RPMP101G3 (VHH) VHH: EVQLVESGGGLVQAGGSLRLSCTASGRTFSDYDMGWFRQAPGKERECVAIIDTNGDNTLIVGSVKGRFAISSDNAKNTVYLQMNSLLPEDTAVYTCAAGVWSSLRHTAANYWGQGTQVTVSS ?
0.773

Could you share which OD450 ratio sample/blank value was measured for IL6RPMP104E4 (VHH) VHH: EVQLVESGGGTVQAGGSLKLSCAASGRTFTNYAMGWFRQAPGKEREFVAAIAYATHFADSVKGRFTISRGNAKNTVYLQMNSLKPEDTAVYYCAADLSLSKMVSKITSDMDYWGKGTLVTVSS ?
0.838

Could you share which OD450 ratio sample/blank value was measured for IL6RPMP101F2 (VHH) VHH: EVQLVESGGGLVQAGGSLRLSCAASGFAFDDYAIGWFRQAPGKEREGVSSISSSNGNTYYADSVRGRFTISSDNAKNTVYLQMNSLKPEDTGVYYCAAIWGIFFNEKMPVGAYDYWGQGTQVTVSS ?
0.811

Could you share which OD450 ratio sample/blank value was measured for IL6RPMP103F2 (VHH) VHH: EVQLVESGGGLVQAGGSLRLSCVASGHTSDTYIMAWFRQAPGKEREFVASILWDGSITYYADSVKDRFTISRDISRKTLYLQMNSLRPEDTATYTCARGIYFSRRYVDPGIYGTWGQGTQVTVSS ?
1.09

Where these numbers come from: patent US10618964B2
